Test system: THX cells
assay: Growth inhibition with or without nucleoside transport inhibitors
Format: cell-based, human
measurement.parameters: Homo sapiens, no transport inhibitor
measurement.type: pIC50
Value format note: pIC50 is -log10 of concentration (mol/L); just state the number.

Input line: Would you kindly share the measured pIC50 for Nc1ccn([C@@H]2O[C@H](CO)[C@@H](O)C2(F)F)c(=O)n1 [gemcitabine, 2′,2′-difluorodeoxycytidine] ?
Output line: 8.57

----------
Test system: THX cells
assay: Growth inhibition with or without nucleoside transport inhibitors
Type: cell-based, human
measurement.parameters: Homo sapiens, +NBMPR 100 μM
measurement.type: IC50 (nM)
// units = nM; emit number, no label

Input line: Would you kindly share the measured IC50 for Nc1ccn([C@@H]2O[C@H](CO)[C@@H](O)C2(F)F)c(=O)n1 [gemcitabine, 2′,2′-difluorodeoxycytidine] ?
Output line: 150
